The measured values listed here are drawn from patent US7589078B2.

- System: CEM cells
- protocol_notes: Cellular toxicity in CEM cells (cell counts)
- test_settings: read-out: Cellular ID50; CEM cells, four day cell growth, cell counts vs untreated controls
measure: IC50

Answered cases to consult:
# smiles_record, IC50
data = [
    ("Cc1cn([C@H]2C=C[C@@](C)(CO)O2)c(=O)[nH]c1=O", "> 100 µM"),
    ("Cc1cn([C@H]2C=C[C@@](C#N)(CO)O2)c(=O)[nH]c1=O", "> 100 µM"),
    ("C=CC[C@@]1(CO)C=C[C@H](n2cc(C)c(=O)[nH]c2=O)O1", "> 100 µM"),
]

The compound C=C[C@@]1(CO)C=C[C@H](n2cc(C)c(=O)[nH]c2=O)O1 showed IC50 equal to > 100 µM

The compound Cc1cn([C@H]2C=C[C@@](C#CCl)(CO)O2)c(=O)[nH]c1=O showed IC50 equal to 62.6 µM

----------
Reported values of Relative Vmax for individual entries
- target_entity: UniProt:P04183
- protocol_notes: Monophosphorylation of analogs by thymidine kinase
- Format: biochemical
- Parameters: phosphorylated by thymidine kinase (TK-1) from CEM cells; endogenous in cells
- test_settings: 250 μM dThd or analog, 2.4 mM ATP, 0.07 unit TK-1, 37° C., 285 min; dThd = 100
Number only, no unit.

Answered cases to consult:
# compound, Relative Vmax
records = [
    ("Cc1cn([C@H]2C[C@H](N=[N+]=[N-])[C@@H](CO)O2)c(=O)[nH]c1=O [AZT, 3′-Azido-3′-deoxythymidine, reference compound]", 55.5),
    ("C=CC[C@@]1(CO)C=C[C@H](n2cc(C)c(=O)[nH]c2=O)O1 [4′-allyl D4T]", 0.4),
    ("Cc1cn([C@H]2C=C[C@@](C#N)(CO)O2)c(=O)[nH]c1=O [4′-cyano D4T]", 1.1),
    ("Cc1cn([C@H]2C=C[C@@](C)(CO)O2)c(=O)[nH]c1=O [4′-methyl D4T]", 1.6),
]

# input for lookup
The compound C=C[C@@]1(CO)C=C[C@H](n2cc(C)c(=O)[nH]c2=O)O1 [4′-vinyl D4T] showed Relative Vmax equal to 1.8

----------
- target_entity: UniProt:P04183
- protocol_notes: Thymidine kinase assay with added nucleoside ([14C]-dThd to dTMP)
- test_settings: [14C]-dThd 25 μM, added nucleoside 250 μM; compared to reactions with no additions
Reported values of Percent of Activity for individual entries
For clarity, give the value followed by its unit.

Answered cases to consult:
# compound, target_entity, measure, result
rows = [
    ("C=C[C@@]1(CO)C=C[C@H](n2cc(C)c(=O)[nH]c2=O)O1", "UniProt:P04183", "Percent of Activity", "99.5 ± 6.9%"),
    ("Cc1cn([C@H]2C[C@H](N=[N+]=[N-])[C@@H](CO)O2)c(=O)[nH]c1=O [AZT, 3′-Azido-3′-deoxythymidine, reference compound]", "UniProt:P04183", "Percent of Activity", "5.4 ± 2.3%"),
    ("Cc1cn([C@H]2C=C[C@@](C)(CO)O2)c(=O)[nH]c1=O", "UniProt:P04183", "Percent of Activity", "103.8 ± 9.9%"),
]

# input for lookup
The compound C#C[C@@]1(CO)C=C[C@H](n2cc(C)c(=O)[nH]c2=O)O1 showed Percent of Activity equal to 83.9 ± 6.1%

----------
- Test system: HIV-1 strain IIIB
- protocol_notes: Antiviral activity in MT-2 cells infected with HIV-1 strain IIIB (MTT)
- Format: cell-based
- test_settings: Human immunodeficiency virus 1, IIIB, MT2, read-out: EC50 for single agents (isobologram study)
measure: EC50 (nM)
Only the number, expressed in nM, is required.

Here Cc1cn([C@H]2C=C[C@@H](CO)O2)c(=O)[nH]c1=O [D4T, 2′,3′-Didehydro-3′-deoxythymidine, reference compound] was tested on HIV-1 strain IIIB, and its EC50 came to 1400

----------
Reported values of Relative Vmax for individual entries
- target_entity: thymidine kinase (TK-1) (Homo sapiens, UniProt P04183)
- Sequence (P04183 whole entry): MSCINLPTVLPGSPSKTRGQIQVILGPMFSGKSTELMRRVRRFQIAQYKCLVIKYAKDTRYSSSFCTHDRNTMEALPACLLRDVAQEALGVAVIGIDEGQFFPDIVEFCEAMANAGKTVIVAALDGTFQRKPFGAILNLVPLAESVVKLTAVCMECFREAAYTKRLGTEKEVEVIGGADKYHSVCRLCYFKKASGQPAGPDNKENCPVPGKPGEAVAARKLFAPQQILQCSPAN
- protocol_notes: Monophosphorylation of analogs by thymidine kinase
- Format: biochemical
- Design: phosphorylated by thymidine kinase (TK-1) from CEM cells; endogenous in cells
- test_settings: 250 μM dThd or analog, 2.4 mM ATP, 0.07 unit TK-1, 37° C., 285 min; dThd = 100

Answered cases to consult:
# compound, Relative Vmax
data = [
    ("Cc1cn([C@H]2C=C[C@@H](CO)O2)c(=O)[nH]c1=O [D4T, 2′,3′-Didehydro-3′-deoxythymidine, reference compound]", "2.1 ± 0.7"),
    ("C#C[C@@]1(CO)C=C[C@H](n2cc(C)c(=O)[nH]c2=O)O1 [4′-ethynyl D4T]", "3.8 ± 0.8"),
]

The compound Cc1cn([C@H]2C=C[C@@](C#CCl)(CO)O2)c(=O)[nH]c1=O [4′-ethynylchloro D4T] showed Relative Vmax equal to 3.9 ± 1.0

----------
- System: MT-2 cells
- protocol_notes: Cellular toxicity, MT-2 cell growth
- Assay type: cell-based
- test_settings: MT-2 cells; read-out: ID50: concentration required to inhibit MT-2 cell growth by 50%
measure: IC50

The compound Cc1cn([C@H]2C=C[C@@](C#CCl)(CO)O2)c(=O)[nH]c1=O showed IC50 equal to 63.3 µM

The compound C=C[C@@]1(CO)C=C[C@H](n2cc(C)c(=O)[nH]c2=O)O1 showed IC50 equal to > 100 µM

The compound Cc1cn([C@H]2C=C[C@@](C#N)(CO)O2)c(=O)[nH]c1=O showed IC50 equal to > 100 µM

The compound C=CC[C@@]1(CO)C=C[C@H](n2cc(C)c(=O)[nH]c2=O)O1 showed IC50 equal to > 100 µM

The compound Cc1cn([C@H]2C=C[C@@](C)(CO)O2)c(=O)[nH]c1=O showed IC50 equal to > 100 µM

----------
Reported values of Percent of Activity for individual entries
- target_entity: thymidine kinase (TK-1) (Homo sapiens)
- protocol_notes: Thymidine kinase assay with added nucleoside ([14C]-dThd to dTMP)
- test_settings: [14C]-dThd 25 μM, added nucleoside 250 μM; compared to reactions with no additions

Answered cases to consult:
# compound, result
measured = [
    ("C=CC[C@@]1(CO)C=C[C@H](n2cc(C)c(=O)[nH]c2=O)O1", "110.8 ± 9.0%"),
    ("Cc1cn([C@H]2C=C[C@@](C#CCl)(CO)O2)c(=O)[nH]c1=O", "53.2 ± 9.2%"),
    ("Cc1cn([C@H]2C=C[C@@](C#N)(CO)O2)c(=O)[nH]c1=O", "71.8 ± 8.2%"),
]

The compound Cc1cn([C@H]2C=C[C@@H](CO)O2)c(=O)[nH]c1=O [D4T, 2′,3′-Didehydro-3′-deoxythymidine, reference compound] showed Percent of Activity equal to 106.3 ± 7.7%
